Molecular target: T1, FLT-1 IgG (UniProt P17948 27-758)
T1 construct: Construct only cited from Park et al. 1994; also called FLT-IgG; FLT-1 receptor-IgG chimera; not shown: IgG part of the chimera (captured by anti-human IgG Fc)
T1 sequence (P17948 27-758): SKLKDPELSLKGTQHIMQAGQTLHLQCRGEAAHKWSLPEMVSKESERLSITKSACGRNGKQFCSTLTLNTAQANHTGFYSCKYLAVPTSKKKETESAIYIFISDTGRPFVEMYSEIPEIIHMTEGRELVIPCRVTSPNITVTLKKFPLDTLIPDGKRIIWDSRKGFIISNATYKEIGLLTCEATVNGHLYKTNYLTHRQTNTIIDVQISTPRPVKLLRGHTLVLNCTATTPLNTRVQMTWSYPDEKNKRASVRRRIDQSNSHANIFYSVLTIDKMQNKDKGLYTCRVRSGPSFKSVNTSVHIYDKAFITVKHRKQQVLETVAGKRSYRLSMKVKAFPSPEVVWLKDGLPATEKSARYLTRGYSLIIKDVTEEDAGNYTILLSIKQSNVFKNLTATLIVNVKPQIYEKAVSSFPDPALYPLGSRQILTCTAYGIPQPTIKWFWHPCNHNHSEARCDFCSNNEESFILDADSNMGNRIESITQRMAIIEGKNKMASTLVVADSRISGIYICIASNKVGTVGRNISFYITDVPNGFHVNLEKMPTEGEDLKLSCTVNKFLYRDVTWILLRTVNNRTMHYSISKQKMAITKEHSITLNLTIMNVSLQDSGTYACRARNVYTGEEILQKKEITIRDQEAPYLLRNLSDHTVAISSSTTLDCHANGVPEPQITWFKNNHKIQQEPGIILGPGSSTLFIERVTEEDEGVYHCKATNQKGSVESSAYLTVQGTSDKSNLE
Experiment: competition with 125I-VEGF165 for FLT-1-IgG, radioligand plate assay
Procedure: After the supernatant was discarded, the wells were washed three times in washing buffer (0.01% Tween 80 in PBS). The plate was blocked (300 µl/well) for one hr in assay buffer (0.5% BSA, 0.03% Tween 80, 0.01% Thimerosal in PBS). The supernatant was discarded and the wells were washed. […] The supernatant was discarded, the plate washed, and individual microtiter wells were counted by gamma scintigraphy (LKB model 1277).
measurement type: IC50 (ng/mL)
Report as a plain number; the unit ng/mL is understood.

Consider the worked cases shown below.
binder	measurement type	measurement
D34A VEGF (ligand, VEGF165 mutant from 293 cells, conditioned medium) APMAEGGGQNHHEVVKFMDVYQRSYCHPIETLVAIFQEYPDEIEYIFKPSCVPLMRCGGCCNDEGLECVPTEESNITMQIMRIKPHQGQHIGEMSFLQHNKCECRPKKDRARQENPCGPCSERRKHLFVQDPQTCKCSCKNTDSRCKARQLELNERTCRCDKPRR	IC50	0.59
R112A, E114A VEGF (ligand, VEGF165 mutant from 293 cells, conditioned medium) APMAEGGGQNHHEVVKFMDVYQRSYCHPIETLVDIFQEYPDEIEYIFKPSCVPLMRCGGCCNDEGLECVPTEESNITMQIMRIKPHQGQHIGEMSFLQHNKCECRPKKDRAAQANPCGPCSERRKHLFVQDPQTCKCSCKNTDSRCKARQLELNERTCRCDKPRR	IC50	0.56
N75A VEGF (ligand, Unglycosylated form of VEGF from 293 cells, conditioned medium) APMAEGGGQNHHEVVKFMDVYQRSYCHPIETLVDIFQEYPDEIEYIFKPSCVPLMRCGGCCNDEGLECVPTEESAITMQIMRIKPHQGQHIGEMSFLQHNKCECRPKKDRARQENPCGPCSERRKHLFVQDPQTCKCSCKNTDSRCKARQLELNERTCRCDKPRR	IC50	1.26

Consider the binder KKDR(107-110)AAAA VEGF (ligand, VEGF165 mutant from 293 cells, conditioned medium; also called K107A, K108A, D109A, R110A) APMAEGGGQNHHEVVKFMDVYQRSYCHPIETLVDIFQEYPDEIEYIFKPSCVPLMRCGGCCNDEGLECVPTEESNITMQIMRIKPHQGQHIGEMSFLQHNKCECRPAAAAARQENPCGPCSERRKHLFVQDPQTCKCSCKNTDSRCKARQLELNERTCRCDKPRR . State its measured IC50.
2.42
